- Assay Remarks: molar heat capacity at constant pressure
- Experimental Parameters: 80 K; 101.33 kPa; Crystal
Endpoint Name: molar heat capacity at constant pressure (J/K/mol)

[
  {
    "Compound": "CCCCCCCCCCCCCCC(=O)OC [methyl pentadecanoate]",
    "Endpoint Name": "molar heat capacity at constant pressure",
    "Reported Measurement": 159.35
  },
  {
    "Compound": "CCCCCCCCCCCCCCCCCCC(=O)OC [methyl nonadecanoate]",
    "Endpoint Name": "molar heat capacity at constant pressure",
    "Reported Measurement": 190.79
  },
  {
    "Compound": "CCCCCCCCCCCCCCCC(=O)OC [methyl hexadecanoate]",
    "Endpoint Name": "molar heat capacity at constant pressure",
    "Reported Measurement": 167.13
  },
  {
    "Compound": "CCCCCCCCCCCCCCCCCC(=O)OC [methyl octadecanoate]",
    "Endpoint Name": "molar heat capacity at constant pressure",
    "Reported Measurement": 182.89
  },
  {
    "Compound": "CCCCCCCCCCCC(=O)OC [methyl dodecanoate]",
    "Endpoint Name": "molar heat capacity at constant pressure",
    "Reported Measurement": 134.57
  },
  {
    "Compound": "CCCCCCCCCCC(=O)OC [methyl undecanoate]",
    "Endpoint Name": "molar heat capacity at constant pressure",
    "Reported Measurement": 128.03
  },
  {
    "Compound": "CCCCCCCCCC(=O)OC [methyl decanoate]",
    "Endpoint Name": "molar heat capacity at constant pressure",
    "Reported Measurement": 119.09
  }
]

###

- Assay Remarks: molar heat capacity at constant pressure
- Experimental Parameters: 200 K; 101.33 kPa; Crystal
Could you mark each record Met if its molar heat capacity at constant pressure falls strictly under 300 J/K/mol, and Not met if it equals or exceeds it?

[
  {
    "Compound": "CCCCCCCCCC(=O)OC [methyl decanoate]",
    "Class Label": "Met"
  },
  {
    "Compound": "CCCCCCCCCCC(=O)OC [methyl undecanoate]",
    "Class Label": "Met"
  },
  {
    "Compound": "CCCCCCCCC(=O)OC [methyl nonanoate]",
    "Class Label": "Met"
  },
  {
    "Compound": "CCCCCCCCCCCCCCCCC(=O)OC [methyl heptadecanoate]",
    "Class Label": "Not met"
  },
  {
    "Compound": "CCCCCCCCCCCCCCCCCCCC(=O)OC [methyl eicosanoate]",
    "Class Label": "Not met"
  },
  {
    "Compound": "CCCCCCCC(=O)OC [methyl octanoate]",
    "Class Label": "Met"
  },
  {
    "Compound": "CCCCCCCCCCCCCCCCCCC(=O)OC [methyl nonadecanoate]",
    "Class Label": "Not met"
  },
  {
    "Compound": "CCCCCCCCCCCCCC(=O)OC [methyl tetradecanoate]",
    "Class Label": "Met"
  },
  {
    "Compound": "CCCCCCCCCCCCCCCC(=O)OC [methyl hexadecanoate]",
    "Class Label": "Not met"
  },
  {
    "Compound": "CCCCCCCCCCCCC(=O)OC [methyl tridecanoate]",
    "Class Label": "Met"
  },
  {
    "Compound": "CCCCCCCCCCCCCCCCCC(=O)OC [methyl octadecanoate]",
    "Class Label": "Not met"
  },
  {
    "Compound": "CCCCCCCCCCCC(=O)OC [methyl dodecanoate]",
    "Class Label": "Met"
  }
]

###

- Assay Remarks: molar heat capacity at constant pressure
- Experimental Parameters: 330 K; 101.33 kPa; Liquid

[
  {
    "Molecule": "CCCCCCCCCCCCCCCCC(=O)OC [methyl heptadecanoate]",
    "molar heat capacity at constant pressure [J/K/mol]": 609.25
  },
  {
    "Molecule": "CCCCCCCCCCCCCCCC(=O)OC [methyl hexadecanoate]",
    "molar heat capacity at constant pressure [J/K/mol]": 583.02
  },
  {
    "Molecule": "CCCCCCCCC(=O)OC [methyl nonanoate]",
    "molar heat capacity at constant pressure [J/K/mol]": 359.1
  },
  {
    "Molecule": "CCCCCCCCCCCCCC(=O)OC [methyl tetradecanoate]",
    "molar heat capacity at constant pressure [J/K/mol]": 515.86
  },
  {
    "Molecule": "CCCCCCCCCCCCCCCCCC(=O)OC [methyl octadecanoate]",
    "molar heat capacity at constant pressure [J/K/mol]": 646.44
  },
  {
    "Molecule": "CCCCCCCCCCCCCCCCCCC(=O)OC [methyl nonadecanoate]",
    "molar heat capacity at constant pressure [J/K/mol]": 677.17
  },
  {
    "Molecule": "CCCCCCCCCC(=O)OC [methyl decanoate]",
    "molar heat capacity at constant pressure [J/K/mol]": 389.78
  },
  {
    "Molecule": "CCCCCCCCCCCCCCC(=O)OC [methyl pentadecanoate]",
    "molar heat capacity at constant pressure [J/K/mol]": 544.8
  },
  {
    "Molecule": "CCCCCCCCCCCC(=O)OC [methyl dodecanoate]",
    "molar heat capacity at constant pressure [J/K/mol]": 453.83
  },
  {
    "Molecule": "CCCCCCCCCCCCC(=O)OC [methyl tridecanoate]",
    "molar heat capacity at constant pressure [J/K/mol]": 485.18
  },
  {
    "Molecule": "CCCCCCCC(=O)OC [methyl octanoate]",
    "molar heat capacity at constant pressure [J/K/mol]": 327.93
  },
  {
    "Molecule": "CCCCCCCCCCCCCCCCCCCC(=O)OC [methyl eicosanoate]",
    "molar heat capacity at constant pressure [J/K/mol]": 714.47
  },
  {
    "Molecule": "CCCCCCCCCCC(=O)OC [methyl undecanoate]",
    "molar heat capacity at constant pressure [J/K/mol]": 421.78
  }
]

###

- Assay Remarks: molar heat capacity at constant pressure
- Experimental Parameters: 120 K; 101.33 kPa; Crystal
Class true (1): molar heat capacity at constant pressure at least 200 J/K/mol. Class false (0): molar heat capacity at constant pressure below 200 J/K/mol.

[
  {
    "Compound": "CCCCCCCCCCCCCCCC(=O)OC [methyl hexadecanoate]",
    "Class Label": "true (1)"
  },
  {
    "Compound": "CCCCCCCC(=O)OC [methyl octanoate]",
    "Class Label": "false (0)"
  },
  {
    "Compound": "CCCCCCCCCCCCCCCCCCC(=O)OC [methyl nonadecanoate]",
    "Class Label": "true (1)"
  },
  {
    "Compound": "CCCCCCCCCCCCCCCCCCCC(=O)OC [methyl eicosanoate]",
    "Class Label": "true (1)"
  },
  {
    "Compound": "CCCCCCCCCC(=O)OC [methyl decanoate]",
    "Class Label": "false (0)"
  },
  {
    "Compound": "CCCCCCCCCCC(=O)OC [methyl undecanoate]",
    "Class Label": "false (0)"
  }
]

###

- Assay Remarks: molar heat capacity at constant pressure
- Experimental Parameters: 210 K; 101.33 kPa; Crystal
Endpoint Name: molar heat capacity at constant pressure (J/K/mol)

[
  {
    "Molecule": "CCCCCCCCCCC(=O)OC [methyl undecanoate]",
    "Endpoint Name": "molar heat capacity at constant pressure",
    "U": "J/K/mol",
    "Reported Measurement": 253.93
  },
  {
    "Molecule": "CCCCCCCCCC(=O)OC [methyl decanoate]",
    "Endpoint Name": "molar heat capacity at constant pressure",
    "U": "J/K/mol",
    "Reported Measurement": 234.91
  },
  {
    "Molecule": "CCCCCCCCCCCC(=O)OC [methyl dodecanoate]",
    "Endpoint Name": "molar heat capacity at constant pressure",
    "U": "J/K/mol",
    "Reported Measurement": 265.84
  },
  {
    "Molecule": "CCCCCCCCCCCCCCCC(=O)OC [methyl hexadecanoate]",
    "Endpoint Name": "molar heat capacity at constant pressure",
    "U": "J/K/mol",
    "Reported Measurement": 330.97
  },
  {
    "Molecule": "CCCCCCCCCCCCCCC(=O)OC [methyl pentadecanoate]",
    "Endpoint Name": "molar heat capacity at constant pressure",
    "U": "J/K/mol",
    "Reported Measurement": 316.28
  },
  {
    "Molecule": "CCCCCCCC(=O)OC [methyl octanoate]",
    "Endpoint Name": "molar heat capacity at constant pressure",
    "U": "J/K/mol",
    "Reported Measurement": 205.99
  },
  {
    "Molecule": "CCCCCCCCCCCCCC(=O)OC [methyl tetradecanoate]",
    "Endpoint Name": "molar heat capacity at constant pressure",
    "U": "J/K/mol",
    "Reported Measurement": 296.67
  },
  {
    "Molecule": "CCCCCCCCCCCCCCCCCCC(=O)OC [methyl nonadecanoate]",
    "Endpoint Name": "molar heat capacity at constant pressure",
    "U": "J/K/mol",
    "Reported Measurement": 380.94
  },
  {
    "Molecule": "CCCCCCCCCCCCCCCCC(=O)OC [methyl heptadecanoate]",
    "Endpoint Name": "molar heat capacity at constant pressure",
    "U": "J/K/mol",
    "Reported Measurement": 355.66
  },
  {
    "Molecule": "CCCCCCCCCCCCCCCCCCCC(=O)OC [methyl eicosanoate]",
    "Endpoint Name": "molar heat capacity at constant pressure",
    "U": "J/K/mol",
    "Reported Measurement": 395.71
  },
  {
    "Molecule": "CCCCCCCCCCCCCCCCCC(=O)OC [methyl octadecanoate]",
    "Endpoint Name": "molar heat capacity at constant pressure",
    "U": "J/K/mol",
    "Reported Measurement": 368.18
  },
  {
    "Molecule": "CCCCCCCCC(=O)OC [methyl nonanoate]",
    "Endpoint Name": "molar heat capacity at constant pressure",
    "U": "J/K/mol",
    "Reported Measurement": 224.62
  },
  {
    "Molecule": "CCCCCCCCCCCCC(=O)OC [methyl tridecanoate]",
    "Endpoint Name": "molar heat capacity at constant pressure",
    "U": "J/K/mol",
    "Reported Measurement": 284.88
  }
]
